Overview of reported Behavioral effect across a group of compounds:
Target: 5-hydroxytryptamine receptor 1A (Rattus norvegicus) (UniProt P19327)
Assay: Induction of clear-cut 5-HT motor syndrome in reserpine (5 mg/Kg, sc) pretreated rats at the dose of 32 uM/Kg
Assay type: functional, organism-based
// no unit string in output, number only

INSERT INTO assay_data (compound, reported_measurement) VALUES
  ('CCCN(CCC)[C@@H]1CCc2cccc(C(=O)c3ccccc3)c2C1', 4),
  ('CCCN(CCC)[C@H]1CCc2cccc(C#N)c2C1', 4),
  ('CCCN(CCC)C1CCc2cccc(C(N)=O)c2C1 (racemic)', 4),
  ('CCCN(CCC)C1CCc2cccc(C(=O)OC)c2C1 (racemic)', 4);

Query: Behavioral effect of CCCCC(=O)c1cccc2c1CC(N(CCC)CCC)CC2 (racemic) on 5-hydroxytryptamine receptor 1A (Rattus norvegicus) (UniProt P19327)?
Reply: 4

Query: Behavioral effect of CCCN(CCC)C1CCc2cccc(C#N)c2C1 (racemic) on 5-hydroxytryptamine receptor 1A (Rattus norvegicus) (UniProt P19327)?
Reply: 3

----------
Target: 5-hydroxytryptamine receptor 1A (Rattus norvegicus)
Sequence (whole entry): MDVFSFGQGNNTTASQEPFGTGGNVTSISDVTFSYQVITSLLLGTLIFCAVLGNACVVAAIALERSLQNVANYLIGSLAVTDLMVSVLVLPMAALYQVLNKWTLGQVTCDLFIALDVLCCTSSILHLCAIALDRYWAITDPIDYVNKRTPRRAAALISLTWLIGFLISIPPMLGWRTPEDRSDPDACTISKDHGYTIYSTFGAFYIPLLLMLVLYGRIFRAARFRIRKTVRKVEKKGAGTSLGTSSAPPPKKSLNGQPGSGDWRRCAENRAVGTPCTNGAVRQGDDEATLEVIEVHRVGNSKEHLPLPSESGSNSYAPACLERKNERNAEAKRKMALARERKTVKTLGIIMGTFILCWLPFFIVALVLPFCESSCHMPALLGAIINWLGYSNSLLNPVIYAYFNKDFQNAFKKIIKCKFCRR
Experiment: Induction of clear-cut 5-HT motor syndrome in reserpine (5 mg/kg, sc) pretreated rats at the dose of 32 micro mol/kg
Format: functional, organism-based
Overview of reported Behavioral effect across a group of molecules:
// no unit string in output, number only

INSERT INTO results (molecule, measure, reported_measurement) VALUES
  ('CCCN(CCC)C1CCc2cccc(-c3ccccc3)c2C1 (racemic)', 'Behavioral effect', 0),
  ('CCCN(CCC)[C@H]1CCc2cccc(-c3ccccc3)c2C1', 'Behavioral effect', 0),
  ('C#Cc1cccc2c1C[C@@H](N(CCC)CCC)CC2', 'Behavioral effect', 4),
  ('CCCN(CCC)[C@@H]1CCc2cccc(CO)c2C1', 'Behavioral effect', 4),
  ('CCCN(CCC)[C@@H]1CCc2cccc(-c3ccccc3)c2C1', 'Behavioral effect', 0),
  ('C#Cc1cccc2c1C[C@H](N(CCC)CCC)CC2', 'Behavioral effect', 4),
  ('CCCN(CCC)[C@H]1CCc2ccccc2C1', 'Behavioral effect', 0),
  ('CCCN(CCC)[C@@H]1CCc2cccc(C)c2C1', 'Behavioral effect', 0),
  ('CCCN(CCC)C1CCc2ccccc2C1 (racemic)', 'Behavioral effect', 4),
  ('CCCN(CCC)[C@@H]1CCc2ccccc2C1', 'Behavioral effect', 4);

Query: Fill blank: measured Behavioral effect of the molecule CCCN(CCC)C1CCc2cccc(OS(=O)(=O)C(F)(F)F)c2C1 (racemic) is ____.
Reply: 0

Query: Fill blank: measured Behavioral effect of the molecule `CCCN(CCC)[C@H]1CCc2cccc(CO)c2C1` is ____.
Reply: 0

Query: Fill blank: measured Behavioral effect of the molecule `CCCN(CCC)[C@H]1CCc2cccc(C)c2C1` is ____.
Reply: 0

----------
Molecular target: Dopamine receptor (Rattus norvegicus) (UniProt P25115+P19020+P30729+P18901+P61169)
Assay: Dopamine (DA) turnover in rat corpus striatum
Assay type: functional, tissue-based
MEASURE: Turnover
// no unit string in output, number only

INSERT INTO assay_data (structure, reported_measurement) VALUES
  ('CCCN(CCC)[C@H]1CCc2cccc(-c3ccccc3)c2C1', 99),
  ('CCCN(CCC)[C@H]1CCc2cccc(C(=O)c3ccccc3)c2C1', 88),
  ('CCCN(CCC)[C@@H]1CCc2cccc(C(=O)OC)c2C1', 90),
  ('CCCN(CCC)[C@@H]1CCc2cccc(C)c2C1', 88);

Attention now shifts to the item below.
Query: Turnover of `CCCN(CCC)[C@H]1CCc2cccc(C(=O)OC)c2C1` on Dopamine receptor (Rattus norvegicus) (UniProt P25115+P19020+P30729+P18901+P61169)?
Reply: 98

----------
Molecular target: 5-hydroxytryptamine receptor 1A (Rattus norvegicus, UniProt P19327)
Sequence (P19327 whole entry): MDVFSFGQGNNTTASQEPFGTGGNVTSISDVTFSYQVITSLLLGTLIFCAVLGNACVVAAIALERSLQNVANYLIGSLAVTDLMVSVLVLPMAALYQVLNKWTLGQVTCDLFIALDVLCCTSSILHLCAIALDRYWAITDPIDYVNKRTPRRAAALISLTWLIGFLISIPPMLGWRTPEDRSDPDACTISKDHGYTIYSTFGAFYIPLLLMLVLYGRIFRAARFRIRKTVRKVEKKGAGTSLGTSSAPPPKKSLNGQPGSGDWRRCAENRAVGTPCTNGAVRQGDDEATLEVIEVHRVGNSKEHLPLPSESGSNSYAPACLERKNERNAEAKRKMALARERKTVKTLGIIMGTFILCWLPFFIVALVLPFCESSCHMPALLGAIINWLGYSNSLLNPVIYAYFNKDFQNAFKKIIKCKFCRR
Overview of reported Ki across a group of compounds:
Please state the figure in µM; there is no need to write the unit.

INSERT INTO results (compound, measure, unit_text, reported_measurement) VALUES
  ('CCCN(CCC)[C@@H]1CCc2cccc(C#N)c2C1', 'Ki', 'µM', 0.019);

Query: Ki of `CCCN(CCC)[C@H]1CCc2cccc(CO)c2C1` on 5-hydroxytryptamine receptor 1A (Rattus norvegicus, UniProt P19327)?
Reply: 0.13

Query: Ki of CCCN(CCC)C1CCc2cccc(CO)c2C1 (racemic) on 5-hydroxytryptamine receptor 1A (Rattus norvegicus, UniProt P19327)?
Reply: 0.025

Query: Ki of CCCN(CCC)C1CCc2cccc(C(C)=O)c2C1 (racemic) on 5-hydroxytryptamine receptor 1A (Rattus norvegicus, UniProt P19327)?
Reply: 0.0009

Query: Ki of C#Cc1cccc2c1CC(N(CCC)CCC)CC2 (racemic) on 5-hydroxytryptamine receptor 1A (Rattus norvegicus, UniProt P19327)?
Reply: 0.004

----------
Overview of reported No. of rats across a group of compounds:
Target: 5-hydroxytryptamine receptor 1A (Rattus norvegicus) (UniProt P19327)
Experiment: Number of rats displaying the 5-HT syndrome or leaving the cage out of the number of rats tested
Assay type: functional
// no unit string in output, number only

Solved cases (5 shown):
INSERT INTO results (structure, measure, reported_measurement) VALUES
  ('CCCN(CCC)[C@@H]1CCc2cccc(C(=O)c3ccccc3)c2C1', 'No. of rats', 0),
  ('CCCN(CCC)[C@@H]1CCc2cccc(C(=O)OC)c2C1', 'No. of rats', 0),
  ('CCCN(CCC)[C@@H]1CCc2cccc(OS(=O)(=O)C(F)(F)F)c2C1', 'No. of rats', 4),
  ('CCCN(CCC)[C@H]1CCc2cccc(C(=O)OC)c2C1', 'No. of rats', 0),
  ('CCCN(CCC)[C@H]1CCc2ccccc2C1', 'No. of rats', 5);

Query: Fill blank: measured No. of rats of the compound `CCCN(CCC)[C@H]1CCc2cccc(C(C)=O)c2C1` is ____.
Reply: 0

Query: Fill blank: measured No. of rats of the compound `CCCN(CCC)[C@H]1CCc2cccc(C)c2C1` is ____.
Reply: 0

Query: Fill blank: measured No. of rats of the compound `CCCN(CCC)[C@@H]1CCc2cccc(-c3ccccc3)c2C1` is ____.
Reply: 3

Query: Fill blank: measured No. of rats of the compound `CCCN(CCC)[C@@H]1CCc2cccc(CO)c2C1` is ____.
Reply: 0

Query: Fill blank: measured No. of rats of the compound `CCCN(CCC)[C@H]1CCc2cccc(C(=O)c3ccccc3)c2C1` is ____.
Reply: 2

Query: Fill blank: measured No. of rats of the compound `CCCN(CCC)[C@@H]1CCc2cccc(OC)c2C1` is ____.
Reply: 0

Query: Fill blank: measured No. of rats of the compound `CCCN(CCC)[C@@H]1CCc2cccc(O)c2C1` is ____.
Reply: 42
